experiment: label from the status in PepcDB records

{"columns": ["primary-sequence", "protein production"],
 "data": [
  ["MSPRSIAMCGRCGIRARHSVAPDCCLSVRQATNKCPAVEHHSHGGRRPCTANGGVAFDRFVMTNRFSPRARSTRIVSKVVWRKRSGRDDENKKTRGEHDMSASVQSALSGLVLAAAVAMPALADGLKDEIAPTGKLRVAIAISPAGGAFWSTRTETGYAGVPVDLGKEMAAQLGVGVEYVVHQNSGQITDAASKGTWDVTWLPKDPERESKMMFGPIYEVADATYIVKAGSNVTSFASLDQPGIKVAAVNATTTMRGAVAHLRNAEVTGYQTYDEIFGLLKSGEIDAFALSRDQLNKMAQKIPGTKVLDETFKKTVTAVAVPLGHSLALTFVTKFMNEATINGTLRKAYDNNGLKDSPIRTE", "failed"],
  ["QNRGSLSTARSYISMGVGRVYVMKDSPNDIELTMAEGVDVGRYVDYRELAIKIADNRIDVKKNKEIINSRFKLKYKNLSSIYN", "failed"],
  ["MKLYQHIETLWDYMQLKQDLKPADCLFVMCSNDVRVAEHAAALYHQKLAPLIVFSGGEGRFTDGLFEKSEAETFADIARLAGVPSDAILVETRSTNSGENVRFTEQLLKEKGIQCESIILVQKPFMERRAIATFEKQWQSPYSQVQVSSTAHPFFEYINEDMPLMMVLEALMEDFSRVKSYPEKGFQTKQDIPNQVDSSYQVLLERFGFDLVLEHHHHHH", "failed"]
]}
